# testProtocol: 384-well plate pilot, post-Golgi transport modulator project, inhibition of yeast transport mutant growth (AID 636)
# reportedConditions: absorbance 615 nm, about 18 h, stronger effect = higher value
observationType: inhibition (%)
Express it in %; write the number only.

>  <molecule>
CC(C)CC(=O)N1CCN(S(=O)(=O)c2ccc(F)cc2)CC1

>  <observationType>
inhibition

>  <valueMeasured>
2.56

$$$$
>  <molecule>
COc1ccc(C(=O)CSc2nnc(-c3ccc(C)cc3)o2)cc1

>  <observationType>
inhibition

>  <valueMeasured>
4

$$$$
>  <molecule>
CS(=O)(=O)N1CCC(C(=O)NCCC2=CCCCC2)CC1

>  <observationType>
inhibition

>  <valueMeasured>
-5.73

$$$$
>  <molecule>
COc1cccc(C=Nc2ccc3c(c2)OCCO3)c1O

>  <observationType>
inhibition

>  <valueMeasured>
1.95

$$$$
>  <molecule>
CC1Cc2ccccc2N1C(=O)c1cccnc1 (stereo not drawn)

>  <observationType>
inhibition

>  <valueMeasured>
-2.21

$$$$

Query :: Dear colleague, I am looking for the recorded inhibition of the following molecule: `CSc1ccc(-c2cc(=O)c3ccccc3o2)cc1`
Result :: -4.13

Query :: Next record, please: `CCOC(=O)C1CCN(c2c(NC3CCCCCCC3)c(=O)c2=O)CC1`
Result :: 0.64

Query :: Next record, please: `CCOC(=O)C1=C(c2ccccc2)N2CCS(=O)(=O)N=C2S1`
Result :: -2.13

Query :: Next record, please: O=C1CC(c2ccco2)CC(O)=C1C=NCC1NCCc2ccccc21 (stereo not drawn)
Result :: -0.92

----------
# testProtocol: reversal of MRP1-mediated doxorubicin resistance, pilot screen, H69AR cells, doxorubicin co-treatment (AID 601)
# reportedConditions: H69AR cells, CellTiter-Glo, 72 h; compound alone cytotoxicity; at 10 µM
viability vs 90%: less than gives label 1; not less than gives label 0.

Would you please look over these solved cases?
>  <molecule>
O=C(CCNS(=O)(=O)c1ccc(Br)s1)N1CCCCC1

>  <category>
label 0

$$$$
>  <molecule>
CCOc1cccc(C(=O)N(Cc2ccco2)C2CCS(=O)(=O)C2)c1 (stereo unspecified)

>  <category>
label 0

$$$$
>  <molecule>
COc1ccc(CCN2C(=O)CC(N3CCOCC3)C2=O)cc1 (stereo unspecified)

>  <category>
label 0

$$$$

Query :: Is viability of O=C(NC1(C(F)(F)F)NC(=O)N(Cc2ccco2)C1=O)c1cccnc1 (stereo unspecified) strictly below 90%?
Result :: label 0

----------
# testProtocol: reversal of MRP1-mediated doxorubicin resistance, pilot screen, H69AR cells, doxorubicin co-treatment (AID 601)
# reportedConditions: H69AR cells + 2 uM doxorubicin, CellTiter-Glo, 72 h; measured here: viability with 2 uM doxorubicin; at 10 µM; stronger effect = lower value
viability vs 90%: less than gives Yes; not less than gives No.

Would you please look over these solved cases?
>  <givenSmiles>
CCCCOc1ccc(C(=O)Nc2ccc(N3CCN(C(C)=O)CC3)cc2)cc1

>  <category>
No

$$$$
>  <givenSmiles>
CCOC(=O)Cc1csc(/C(=N/O)C(N)=O)n1

>  <category>
No

$$$$
>  <givenSmiles>
O=C(c1cc(-c2cccs2)on1)N1CCc2ccccc2C1

>  <category>
Yes

$$$$
>  <givenSmiles>
C/C(N)=C(/C#N)C(=O)COC(=O)c1cc(S(=O)(=O)N2CCCCC2)ccc1C

>  <category>
No

$$$$

Now turn to the next compound.
Query :: Is viability of `COc1cc2[nH]c3c(=O)n(CCN(C(C)C)C(C)C)cnc3c2cc1OC` strictly below 90%?
Result :: Yes

Where these numbers come from: PubChem BioAssay
